# procedureDetails: qHTS assay to identify small molecule antagonists of the estrogen receptor alpha (ER-alpha) signaling pathway using the BG1 cell line - cell viability counter screen (AID 743081);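 note: compound given together with 17beta-estradiol as the ER stimulus; nearly all actives have a fitted effect of over 45% in size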
# conditionContext: BG1Luc4E2 viability, CellTiter-Fluor, 22 h; series mostly up to 70.3 µM
Results filed as inconclusive are left out. Calls of active or inactive are those of the source. Calls come from the whole dose curve; as a rule, active = well fitted cell-killing curve with a large enough effect in the repeat runs; inconclusive = weak or mixed curves, or effect the other way; inactive = flat fitted curve, though single readings scatter.
Respond only with the outcome that fits, drawn from active, inactive

Q: Record request — test call for CC(C)N=C=NC(C)C
A: inactive

Q: Name the outcome recorded for CCCCOC(=O)CCCCC(=O)OCCCC in the assay.
A: inactive

Q: Given COc1ccc(-n2nc(C(F)F)cc2-c2ccc(S(C)=O)cc2)cc1 (stereo unspecified) , state the outcome it received in this test.
A: inactive

Q: Please share the test call associated with CCN(CC)C(=O)N1CCN(C)CC1 .
A: inactive

Q: What classification did CC(C)(O)c1coc(S(=O)(=O)NC(=O)Nc2c3c(cc4c2CCC4)CCC3)c1 end up with in this test?
A: inactive

Q: What outcome does the record of this test show for CCN(Cc1cccc(S(=O)(=O)O)c1)c1ccc(C(=C2C=CC(=[N+](CC)Cc3cccc(S(=O)(=O)O)c3)C=C2)c2ccccc2S(=O)(=O)[O-])cc1 ?
A: active

Q: State the result this test recorded for Cc1ccccc1S(N)(=O)=O .
A: inactive

Q: Outcome? CC(=O)OCCC1CCCCC1
A: inactive

Q: GET /call?item= O=P(O)(O)Oc1ccccc1 returns the recorded outcome of this test.
A: inactive

Q: Recorded test call requested for C=Cc1ccc(OC(C)=O)cc1
A: inactive

Q: Recorded test call requested for CC(C)COC(=O)COc1cc(Cl)c(Cl)cc1Cl
A: inactive

Q: Tell me the recorded outcome of this test for Cc1cccc2sc(N)nc12 .
A: inactive

Q: What was the test verdict on CC1=C2[C@@H]([C@H](C)CC[C@H]2/C=C(\C)C(=O)O)[C@H](O)C1 ?
A: inactive

Q: Kindly provide the recorded test outcome for the following compound: CCCCCCCCCCCCCCN(C)C
A: inactive

Q: // return assay outcome for COc1ccc(-c2cc(C(F)F)nn2-c2ccc(S(N)(=O)=O)cc2)cc1F
A: inactive

Q: Please state the recorded outcome for this compound: Nc1ccc(NC(=O)c2ccc(N)cc2)cc1
A: inactive

Q: Which result was noted for this compound in the test: CCCCCCC(CO)CCCC (stereo unspecified)
A: inactive

Q: What call does the record list for Cc1ccc2nc(N)[nH]c(=O)c2c1Sc1ccncc1 ?
A: inactive

Q: // return assay outcome for Oc1ccc2c(c1)Cc1ccccc1-2
A: inactive

Q: Hi, do you know how O=C(O)CN1C(=O)c2cccc3cccc(c23)C1=O came out in this test?
A: inactive

Q: Answer briefly: the call reported for CC(C)(C(=O)c1cccnc1)c1cccnc1 in this assay.
A: inactive

Q: Which outcome did this test record for the compound CCCCCC ?
A: inactive

Q: Tell me the recorded outcome of this test for O=c1[nH][nH]c(=O)c2cc([N+](=O)[O-])ccc12 .
A: inactive

Q: Give the logged outcome of this assay for the following compound: Cc1ccc(Nc2c(F)cccc2Cl)c(CC(=O)O)c1
A: inactive

Q: Assay outcome for O=[N+]([O-])C1(Br)COCOC1 : what was it?
A: inactive

Q: What did the test return for CCN(CC)CCOC(=O)C(c1ccccc1)c1ccccc1 ?
A: inactive

Q: Called result for CC(C)OC(=O)c1ccccc1C(=O)OC(C)C
A: inactive

Q: For CC(=O)OCC(=O)[C@@]1(OC(C)=O)[C@@H](C)C[C@H]2[C@@H]3C[C@H](F)C4=CC(=O)C=C[C@]4(C)[C@@]3(F)[C@@H](O)C[C@@]21C , what call appears in the results of this test?
A: inactive

Q: Kindly provide the recorded test outcome for the following compound: CC(CCc1ccc(O)cc1)NCCc1ccc(O)c(O)c1 (stereo unspecified)
A: inactive

Q: Could you check what this test reported for CC(C)(C)CCCCCCOC(=O)c1ccccc1C(=O)OCCCCCCC(C)(C)C ?
A: inactive

Q: Entry O=C(Oc1ccccc1)c1ccc2ccccc2c1O : call = ?
A: inactive

Q: Hi team, can someone confirm the assay call for Nc1nc(-c2ccc([N+](=O)[O-])cc2)cs1 ?
A: inactive

Q: Could you kindly confirm the outcome this assay logged for CC1C(C)(C)C2=C(C(=O)CCC2)C1(C)C (stereo unspecified) ?
A: inactive

Q: Hi, do you know how CCCCCCCCCCCSCC(=O)O came out in this test?
A: inactive

Q: Query: recorded result category for CC(=O)C(C)=O in this test
A: inactive

Q: Can you look up the reported call for CC(=O)OCCC(C)CC(C)(C)C (stereo unspecified) for me?
A: inactive

Q: What classification did CC[C@H]1OC(=O)[C@H](C)[C@@H](O[C@H]2C[C@@](C)(OC)[C@@H](O)[C@H](C)O2)[C@H](C)[C@@H](O[C@@H]2O[C@H](C)C[C@H](N(C)C)[C@H]2O)[C@](C)(O)C[C@@H](C)CN(C)[C@H](C)[C@@H](O)[C@]1(C)O end up with in this test?
A: inactive

Q: I'd appreciate the recorded outcome for O=C(NC(Cc1cc(=O)[nH]c2ccccc12)C(=O)O)c1ccc(Cl)cc1 (stereo unspecified) from this test.
A: inactive

Q: // param item: O=C(O)CO ; yields the recorded call
A: inactive

Q: Look up the recorded call for C=CC(=O)NC(C)C in this test.
A: inactive

Q: // param item: CNS(=O)(=O)c1cc(C(=O)N2CCC(CCN3C4CCC3CC(n3c(C)nc5ccccc53)C4)(c3cccc(F)c3)CC2)c(Cl)cc1F (stereo unspecified) ; yields the recorded call
A: inactive

Q: What call does the record list for CC(C)(O)CCc1ccccc1 ?
A: inactive

Q: Check the results log: what was the call for CCCCCCCCCCCCCOC(=O)CCSCCC(=O)OCCCCCCCCCCCCC ?
A: inactive

Q: Outcome logged for O=C1OC(=O)c2c(Br)c(Br)c(Br)c(Br)c21 in this assay:
A: inactive

Q: Any idea what this test logged for C=CC(=O)O ?
A: inactive

Q: How was CCCCCc1ccco1 classified in this test?
A: inactive

Q: Answer briefly: the call reported for CC(=O)Oc1cccc(O)c1 in this assay.
A: inactive

Q: Just curious, what result did CCC(C)(C)C(=O)O get here?
A: inactive

Q: Look up the recorded call for CNC1CCCN(c2c(F)cc3c(=O)c(C(=O)O)cn(C4CC4)c3c2OC)C1 (stereo unspecified) in this test.
A: inactive

Q: Record lookup: outcome of this test for Nc1ccc(S(=O)(=O)NCc2ccccc2)cc1 ?
A: inactive

Q: Short answer needed: outcome of this test for COC1CCC=CO1 (stereo unspecified) ?
A: inactive
